- ASSAY_NOTES: RSV assay: Following extensive parameter testing, the final assay is run as follows: HEp-2 cells are seeded into the inner 60 wells of a 96-well plate at 8,000 cells per well in a volume of 50 μL using Growth Media (DMEM without phenol red, 1% L-Glut, 1% Penn/Strep, 1% nonessential amino acids, 10% FBS). 2-fold serial dilutions of control and test compounds are added to the wells in duplicate in a total volume of 25 μL. Viral stock is then added to the wells in a volume of 25 μL, bringing the total volume of each well to 100 μL. Each 96-well plate has a control column of 6 wells with cells and virus but no compound (negative control, max CPE), a column with cells but no compound or virus (positive control, minimum CPE), and a column with no cells or virus or compound (background plate/reagent control). The control wells with cells but no virus are given an additional 25 uL of growth media containing an equal quantity of sucrose as those wells receiving the viral stock in order to keep consistent in media and volume conditions. The outer wells of the plate are filled with 125 μL of growth media to act as a thermal and evaporative moat around the test wells. Following a 4-day incubation period, the plates are read using ATPlite (50 uL added per well), which quantifies the amount of ATP (a measure of cell health) present in each well. Assay plates are read using the Envision luminometer.
- MEASUREMENT_CONTEXT: HEp-2
RESULT_TYPE: EC50 (nM)

>>> endpoint_result("O=C(NC1N=C(c2ccccc2)c2ccsc2NC1=O)OCc1ccccc1 (configuration not stated)")
600
>>> endpoint_result("Cc1sc2c(c1C)C(c1ccccc1)=NC(Nc1nnc(-c3ncc(C(F)(F)F)cc3N3CCOCC3)o1)C(=O)N2 (configuration not stated)")
600
>>> endpoint_result("NC1N=C(c2ccccc2)c2sccc2NC1=O (configuration not stated)")
600

====

- ASSAY_NOTES: RSV assay: Following extensive parameter testing, the final assay is run as follows: HEp-2 cells are seeded into the inner 60 wells of a 96-well plate at 8,000 cells per well in a volume of 50 μL using Growth Media (DMEM without phenol red, 1% L-Glut, 1% Penn/Strep, 1% nonessential amino acids, 10% FBS). 2-fold serial dilutions of control and test compounds are added to the wells in duplicate in a total volume of 25 μL. Viral stock is then added to the wells in a volume of 25 μL, bringing the total volume of each well to 100 μL. Each 96-well plate has a control column of 6 wells with cells and virus but no compound (negative control, max CPE), a column with cells but no compound or virus (positive control, minimum CPE), and a column with no cells or virus or compound (background plate/reagent control). The control wells with cells but no virus are given an additional 25 uL of growth media containing an equal quantity of sucrose as those wells receiving the viral stock in order to keep consistent in media and volume conditions. The outer wells of the plate are filled with 125 μL of growth media to act as a thermal and evaporative moat around the test wells. Following a 4-day incubation period, the plates are read using ATPlite (50 uL added per well), which quantifies the amount of ATP (a measure of cell health) present in each well. Assay plates are read using the Envision luminometer.
- MEASUREMENT_CONTEXT: HEp-2
RESULT_TYPE: EC50

>>> endpoint_result("O=C1Nc2ncccc2C(c2ccccc2)=NC1Nc1nnc(-c2ccc(F)cc2)o1 (centres undefined)")
"> 800 nM"
>>> endpoint_result("O=C1Nc2cccnc2C(c2ccccc2)=NC1Nc1nnc(-c2ccccc2)o1 (centres undefined)")
"> 800 nM"
>>> endpoint_result("O=C1Nc2cnccc2C(c2ccccc2)=NC1Nc1nnc(-c2ccc(F)cc2)o1 (centres undefined)")
"> 800 nM"
>>> endpoint_result("Cc1cc(C(=O)c2ccccc2)c(N)s1")
"< 400 nM"
